system: OVCAR-5 ovarian; experiment: NCI-60 one-dose screen, 48 h; conditions: 10 µM unless noted
This is part of a sample that, as a whole, favours compounds with a hit. Of some 83,000 tested, about 20% had one in any assay. Calls of active or inactive are those of the source. Rule for the calls: active = growth percent below 10; inactive = the rest.
Labels: active, inactive

COC(=O)N1CCN(CCNCc2ccc(NC(=O)c3ccc(C)c(C#Cc4cnc5cccnn45)c3)cc2C(F)(F)F)CC1; inactive
O=C1Nc2ccc(F)cc2/C1=C\C(=O)c1ccc(NS(=O)(=O)c2ccccc2)cc1; inactive
Cn1cc(-c2nn3cc(-c4ccncc4)nc3s2)c2cc(Br)ccc21; inactive
Oc1[nH]c2ccc(Cl)cc2c1N=Nc1nc(N=Nc2c(O)[nH]c3ccc(Cl)cc23)nc(N2CCOCC2)n1; inactive
CN1CCN(CC#CCn2c3c(c4ccccc42)C[C@]2(C)[C@H]4CC=C5[C@@H]6CC(C)(C)CC[C@]6(C(=O)N6CCOCC6)CC[C@@]5(C)[C@]4(C)CC[C@H]2C3(C)C)CC1; inactive
CCC(=C(c1ccc(OCCN(C)C)cc1)c1ccc(OCCN(C)C)cc1)c1ccc(Cl)cc1; active
CCCCN1C(=O)/C(=c2\sc3n(c2=O)C2C(NN=3)N(CC)C(=O)N2CC)c2cccc(C)c21 (stereo not given); inactive
NC(=O)c1c(NC(=O)c2ccc(C(F)(F)F)cc2)sc2c1CCC(=O)C2; active
CC[C@H](CC[C@@H](C)[C@H]1CC[C@H]2[C@@H]3CC(=O)C4=CC(=O)/C(=C/c5ccc([N+](=O)[O-])cc5)C[C@]4(C)[C@H]3CC[C@]12C)C(C)C; inactive
CC(Nc1ncnc2ccc(-c3cnc(N)nc3)cc12)c1ccccc1 (stereo not given); inactive
CC1(C)C=Cc2cc(/C(N)=N/C(N)=N/c3nc4ccccc4s3)ccc2O1; inactive
O=c1c2cc(-c3ccc(F)cc3F)ccc2n(Nc2ccccc2)c(=O)n1-c1cccc(C(F)(F)F)c1; inactive
Nc1ncc(-c2ccc3ncnc(NCc4ccccc4)c3c2)cn1; inactive
Cc1ccc(NC(=O)Nc2nc3ccc([N+](=O)[O-])cc3s2)cc1; inactive
CC1(C)CC[C@]2(C(=O)NCCCCCCN(CCCN)CCCN)CC[C@]3(C)C(=CC[C@@H]4[C@@]5(C)CC[C@H](O)C(C)(C)[C@@H]5CC[C@]43C)[C@@H]2C1; inactive
COc1ccc(-c2cc(-c3ccc(N4CCOCC4)cc3)n3c(n2)nc2ccccc23)cc1OC; inactive
O=C(Nc1cccc(C(F)(F)F)c1)N1CCN(c2cc(-c3cn(-c4ccccc4)nc3-c3cccc(O)c3)ccn2)CC1; inactive
COc1ccc(N2CCN(C3=C(Cl)C(=O)c4ncccc4C3=O)CC2)cc1; inactive
NC1C2CCC1CN(c1cnc(C(=O)Nc3cc(F)cc4cccnc34)cn1)C2 (stereo not given); inactive
CN1CCN(Cc2ccc(NC(=O)c3cncc(C#Cc4cnc5ccc(N6CCOCC6)nn45)c3)cc2C(F)(F)F)CC1; active
CCCCSC1=C(Cl)CN(c2ccc(Cl)cc2)C1=O; inactive
OCC(Nc1ncnc2ccc(-c3cnc4cnccn34)cc12)c1ccccc1 (stereo not given); inactive
Oc1ccc(-c2nc3ccc(/C(=N\N=C\c4ccc(Cl)cc4)c4ccccc4)cc3[nH]2)cc1; inactive
C#C[C@]1(O)CC[C@H]2[C@@H]3CC=C4c5sc(NCc6ccccc6)nc5CC[C@]4(C)[C@H]3CC[C@@]21C; inactive
CC1=C(C)C(=O)C(Nc2ccc(C)cc2)=C(Br)C1=O; inactive
C=C(C)[C@@H]1CC[C@]2(COP(=O)(OCC)OCC)CC[C@]3(C)[C@H](CC[C@@H]4[C@@]5(C)CC[C@H](OP(=O)(OCC)OCC)C(C)(C)[C@@H]5CC[C@]43C)[C@@H]12; inactive
CCOP(=O)(OCC)OC[C@]12CC[C@@H](C)[C@H](C)C1C1=CC[C@@H]3[C@@]4(C)CCCNC(C)(C)[C@@H]4CC[C@@]3(C)[C@]1(C)CC2 (stereo not given in full); inactive
CC1=C(C)C(=O)C(Nc2cccc(C)c2)=C(Br)C1=O; inactive
C/C(CC1(O)C(=O)Nc2ccccc21)=N\O (stereo not given); inactive
CCN(CC)CCOc1ccc(C(=C(C)Cc2ccc(OC)cc2)c2ccc(OCCN(CC)CC)cc2)cc1; inactive
CCOC(=O)c1c(NC(=O)c2cccc(C(F)(F)F)c2)sc2c3c(ccc12)OCN(C)C3; active
COc1ccc2c(c1)C=CC1(O2)Oc2ccc(OC)cc2C=C1C (stereo not given); inactive
C/C(=C(/C)C1CC1CCNC1CCC(NC(=O)OC(C)(C)C)CC1)c1ccccc1 (stereo not given); inactive
CN(C)CC(=O)Nc1nc(-c2cccc(NS(=O)(=O)c3cccc4c(N(C)C)cccc34)c2)cs1; inactive
CCc1nnc(NC(=O)c2cc(-c3ccc(Cl)cc3Cl)oc2C)s1; inactive

###

Tested on: T-47D breast
Assay: NCI-60 one-dose screen, 48 h (100 = growth as untreated, 0 = no growth, -100 = all killed)
Conditions: 10 µM unless noted
Experimental: Growth inhibition of the T-47D human tumor cell line is measured as a screen for anti-cancer activity. Cells are grown in 96 well plates and exposed to the test compound for 48 hours. Compounds are tested at a single concentration, which is 10^-5 M for most compounds. The reported endpoint is percent growth (GI% or GIPRCNT), where numbers from 0 - 100% represent growth inhibition, and numbers from -100% - 0 represent cell death. For example, a value of 40 represents 60% growth inhibition. […]
The panel holds about 83,000 compounds, 20% with a hit somewhere; the sample as a whole holds those more often.
value-kind: growth (%)

Cc1ccc(Nc2nc(SC(C)C)nc(-c3ccccc3)c2C#N)cc1; 88.4
COc1ccc(OC)c(CCn2cncc2-c2c[nH]c3ccc(Cl)cc23)c1; 20.1
Cc1[nH]c(C(=O)Nc2ccc(C(N)=O)cc2N2CCOC(C)C2)c(Cl)c1Cl (stereo not given); 83
CCOC(=O)C(=O)Nc1ccc2c(ccn2C(=O)c2cccc(F)c2)c1; 99.1
COc1ccc(Cn2cc(C#N)c(N)c2C(C)=O)cc1; 96.8
CC1(C)CC[C@]23CC[C@]4(C)[C@H](CC[C@@H]5[C@@]6(C)CC[C@H](NCO)C(C)(C)[C@@H]6CC[C@]54C)[C@H]2[C@H]1OC3; 44.2
Cc1ccc(CSC2=C(Cl)CN(c3ccc(Cl)cc3)C2=O)cc1; 96.5
Cc1ccc(S(=O)(=O)c2nc(-c3ccc(F)cc3)oc2S(C)(=O)=O)cc1; 60.8
O=C1Nc2ccccc2/C1=C/c1ccc(OCC(=O)c2ccccc2)cc1; 97.6
Nc1cc(C(=O)N/N=C\c2ccc(OC(F)F)c(OC3CCCC3)c2)nn1CC(O)c1ccccc1 (stereo not given); 83.6

###

system: SK-MEL-5 melanoma; experiment: NCI-60 one-dose screen, 48 h (100 = growth as untreated, 0 = no growth, -100 = all killed); details: 10 µM unless noted
Compounds without any hit were thinned out: in the full panel of roughly 83,000, 20% have a hit.
value-kind: growth (%)

O=C1Nc2ccc(F)cc2/C1=C\C(=O)c1ccc(NS(=O)(=O)c2ccccc2)cc1; 97.3
O=C(O)CC1CCN(c2ccc3nnc(Cl)n3n2)CC1; 101
O=c1c2ccccc2cc2n1CCN=C2c1ccccc1; 99.5
COc1cc(-c2nc(-c3ccccc3)[nH]c2-c2ccnc(NCCCNS(=O)(=O)c3ccc(C)cc3)n2)ccc1F; 84.4
CC(C)=CCC[C@](C)(O)[C@H]1CC[C@]2(C)[C@@H]1CC[C@@H]1[C@@]3(C)CC[C@H](N)C(C)(C)[C@@H]3CC[C@]12C; 84.2
CS(=O)(=O)c1ccc(/C(=N/N=C(N)N)c2ccc(Cl)cc2)cc1; 92.2
COc1ccc(-c2c3c(cn2Cc2cccc(OC)c2)-c2oncc2CCC3)cc1; 100
COc1ccc(NC(=O)CCCCCCNC(=O)C(O)(O)C(F)(F)F)cc1; 17
O=S(=O)(Oc1ccc(-c2cn3ccsc3n2)cc1)c1cccc(C(F)(F)F)c1; 98.3
CN1CCN(Cc2ccc(NC(=O)c3cncc(C#Cc4cnc5ccc(OCC(F)F)nn45)c3)cc2C(F)(F)F)CC1; -95.7

###

test system: HCT-116 colon; experiment: NCI-60 one-dose screen, 48 h (100 = growth as untreated, 0 = no growth, -100 = all killed); details: 10 µM unless noted
The panel holds about 83,000 compounds, 20% with a hit somewhere; the sample as a whole holds those more often.
value-kind: growth (%)

Fc1cc(F)cc(NNC(=S)c2ccccc2)c1; 20.9
Cc1cc(=O)[nH]c(O)c1C#N; 104
Cc1ccc([C@H]2c3[nH]c4ccccc4c3C[C@H]3C(=O)N(CCCCCCC(=O)NO)CC(=O)N23)s1; 23.7
CCN(CC)CCOc1ccc(C(=C(C)c2ccc(OC)cc2)c2ccc(OCCN(CC)CC)cc2)cc1; 0.525
Clc1ccc2[nH]cc(-c3nn4cc(-c5cccnc5)nc4s3)c2c1; 99.8
Cn1c2nc3ccccc3c-2cc2ccccc21; 22.1
C#CCOc1cccc(-c2nc(N)nc(Nc3ccccc3SSc3ccccc3Nc3nc(N)nc(-c4cccc(OCC#C)c4)n3)n2)c1; 45.7
O=C1[C@H]2Cc3c([nH]c4ccccc34)[C@H](c3ccc(Cl)cc3)N2C(=O)CN1C1CCN(CC2CCCCC2)CC1; 5.7
C1=CC(c2nn3c(-c4ccccc4)nnc3s2)=Cc2ccccc2O1; 41.1
Clc1ccc2c(N/N=C/c3c[nH]c4ccccc34)ccnc2c1; -91.9
COc1ccc(NC2=C(Br)C(=O)C(C)=C(C)C2=O)cc1OC; 90.7
CN1CCN(CCNc2nc(-c3cccc(NS(=O)(=O)c4cccc5c(N(C)C)cccc45)c3)cs2)CC1; 32.2
C#CCN(C)CCCOc1ccc(NC(=O)CCCCCCC(=O)NO)cc1Cl; 2.96
O=C(N/N=C\c1ccc([N+](=O)[O-])cc1)c1ccc2nc(-c3ccc(Br)cc3)[nH]c2c1; -37.2
CCOC(=O)c1c(NC(=O)c2ccc(C(F)(F)F)cc2)sc2c(CN3CCN(C)CC3)c(O)ccc12; -92.5
O=S(=O)(Oc1ccc(-c2cn3ccoc3n2)cc1)C1CCCCC1; 89.3
CC1=Cc2ccccc2OC12C=Cc1ccccc1O2 (stereo not given); 99.3
Cc1c(C(=O)/C=C/c2ccc(Cl)cc2)nnn1-c1ccc2oc(=O)ccc2c1; 88.5
COc1ccc(C(=NNS(=O)(=O)c2ccc(C)cc2)c2ccccc2)cc1OC; 96.3
C#Cc1nc(/C=C/C(=O)NO)cs1; 23.8
Cc1cc(C)cc(NC2=C(Cl)C(=O)c3nc(C)ccc3C2=O)c1; 9.38
CCCc1cc2cc(-n3nc(CC)c4c3CC(C)(C)CC4=O)cc(NC3CCC(O)CC3)c2c(=O)[nH]1 (stereo not given); 6.5
COc1cc(OC)cc(-c2cc(-c3c[nH]c4ccccc34)nc(-c3c[nH]c4ccccc34)c2C#N)c1; 101
O=C(Nc1ccc(Cl)c(C(F)(F)F)c1)Nc1ccc2oc(=O)ccc2c1; 15.7
N#Cc1c(-c2cccs2)cc(-c2cnccn2)nc1SCC(=O)N/N=C/c1ccc(Cl)cc1; 57.8
COc1ccc(CC(C)=C(c2ccc(OCCN3CCCC3)cc2)c2ccc(OCCN3CCCC3)cc2)cc1; -17.6
Oc1[nH]c2ccc(Cl)cc2c1N=Nc1nc(N=Nc2c(O)[nH]c3ccc(Cl)cc23)nc(N2CCOCC2)n1; 45.4
COc1ccc(N2CCN(C3=C(Cl)C(=O)c4ncccc4C3=O)CC2)cc1; -59.7
C#C[C@]1(O)CC[C@H]2[C@@H]3CC=C4c5sc(Nc6ncccc6C)nc5CC[C@]4(C)[C@H]3CC[C@@]21C; 7.15
COc1ccc2[nH]cc(-c3nc(N)nnc3-c3cn(C)c4ccc(Br)cc34)c2c1; 18.1
C/C(=C(\c1ccc(O)cc1)c1ccc(OCCN2CCCCCC2)cc1)c1ccc(Cl)cc1; -31.7
NCCNC(=O)c1cccc(COc2ccccc2NC(=O)c2cc(Cl)c(Cl)[nH]2)c1; 86.1
O=C(CCCCCCNC(=O)C(O)(O)C(F)(F)F)Nc1ccc(Br)cc1; -6.77
C#CCN(C)CCCOc1ccc(NCc2ccc(/C=C/C(=O)NO)cc2)cc1Cl; 9.47
O=C(CCCCCCNC(=O)c1csc(Br)n1)NO; 3.29
CCNCCOc1ccc(/C(=C(/CC)c2ccc(Cl)cc2)c2ccc(OCCCN(C)C)cc2)cc1; -72.4
COc1cc(/C=C2/C(=O)Nc3ccc(Cl)cc32)ccc1OCc1ccc(Cl)cc1; 47.9
Oc1[nH]c2ccc(Cl)cc2c1N=Nc1nc(N=Nc2c(O)[nH]c3ccc(Cl)cc23)nc(N2CCCCC2)n1; 23.9
N#Cc1nc(-c2ccc(Cl)cc2)oc1N1CCC(S(=O)(=O)N2CCOCC2)CC1; 101
Brc1cc(-c2cc(-c3ccc4c(c3)OCCO4)[nH]n2)cs1; 41.5
